Numbers sourced from ChEMBL document CHEMBL3880421.

# MEASUREMENT_DESCRIPTION: Antiproliferative activity against VEGF-stimulated HUVEC cells assessed as reduction in cell viability at 10 nM preincubated for 1 hr followed by addition of VEGF measured after 72 hrs by MTT assay
# Assay type: functional
# MEASUREMENT_CONTEXT: Homo sapiens
QUANTITY_NAME: inhibition at 0.01 µM
The reply must contain the numeric value and, after it, the unit.

# MOLECULE, OBSERVED
rows = [
    ("O=C(CCN1CCCCC1)Nc1cccc(Nc2ccc3c(/C=C/c4ccccc4)n[nH]c3c2)c1", "30%"),
    ("O=C(CCC(=O)N1CCCC1)Nc1cccc(Oc2ccc3c(/C=C/c4ccccc4)n[nH]c3c2)c1", "48%"),
    ("CC(C)(C)[C@@H](O)C(=O)Nc1cccc(Oc2ccc3c(/C=C/c4ccccc4)n[nH]c3c2)c1", "30%"),
    ("CC1(C)C(C(=O)Nc2cccc(C(=O)c3ccc4c(/C=C/c5ccccc5)n[nH]c4c3)c2)C1(C)C", "51%"),
    ("O=C(/C=C/C1C[C@H]2C=C[C@H]1C2)Nc1cccc(Nc2ccc3c(/C=C/c4ccccc4)n[nH]c3c2)c1 (some centres not stated)", "30%"),
]

[Q] Data request, read-out inhibition at 0.01 µM, for CC(=O)c1ccc(C(=O)Nc2cccc(Nc3ccc4c(/C=C/c5ccccc5)n[nH]c4c3)c2)s1
[A] 78%

[Q] Then CC(C)c1ccccc1C(=O)Nc1cccc(C(=O)c2ccc3c(/C=C/c4ccccc4)n[nH]c3c2)c1 ?
[A] 51%

[Q] What do we get for C/C(=C\C(=O)Nc1cccc(Nc2ccc3c(/C=C/c4ccccc4)n[nH]c3c2)c1)c1ccccc1C ?
[A] 75%

[Q] Same for O=C(Nc1cccc(Nc2ccc3c(/C=C/c4ccccc4)n[nH]c3c2)c1)c1cc(=O)cco1
[A] 17%

[Q] Entry to check: CC(C)=CC1C(C(=O)Nc2cccc(Oc3ccc4c(/C=C/c5ccccc5)n[nH]c4c3)c2)C1(C)C (configuration not stated)
[A] 24%

[Q] Consider next the molecule Cn1cnc(CC(=O)Nc2cccc(Nc3ccc4c(/C=C/c5ccccc5)n[nH]c4c3)c2)c1 in the same way.
[A] -17%

[Q] // query: O=C(Nc1cccc(Oc2ccc3c(/C=C/c4ccccc4)n[nH]c3c2)c1)C1C[C@H]2C[C@@H]1CCC2O (some centres not stated)
[A] 52%

[Q] Entry O=C(Nc1cccc(Oc2ccc3c(/C=C/c4ccccc4)n[nH]c3c2)c1)C1C[C@H]2C=C[C@H]1C2 (some centres not stated) please
[A] 82%

[Q] Follow-up item: COc1ccc(C#N)c(C(=O)Nc2cccc(Oc3ccc4c(/C=C/c5ccccc5)n[nH]c4c3)c2)c1
[A] 18%

[Q] CCC(C(=O)Nc1cccc(Nc2ccc3c(/C=C/c4ccccc4)n[nH]c3c2)c1)c1ccccc1C (configuration not stated) ?
[A] -3%

[Q] Item: O=C(c1cccc(NC(=O)C2CCCO2)c1)c1ccc2c(/C=C/c3ccccc3)n[nH]c2c1 (configuration not stated)
[A] 18%

[Q] Follow-up entry: CC(C)=NOC(C)C(=O)Nc1cccc(Oc2ccc3c(/C=C/c4ccccc4)n[nH]c3c2)c1 (configuration not stated)
[A] 80%

----------
# MEASUREMENT_DESCRIPTION: AUClast in B6 mouse at 10 mg/kg, po by UV-HPLC analysis
# Type: ADME, organism-based
# Parameters: dose 10 mg/kg, route oral, time 0 - last
# MEASUREMENT_CONTEXT: in vivo
QUANTITY_NAME: AUC(0-t) (ng·h/mL)
Your answer is read as ng·h/mL, so omit the unit and give the number.

[Q] Look up AUC(0-t): CCn1nc(C)cc1C(=O)Nc1cccc(C(=O)c2ccc3c(/C=C/c4ccccn4)n[nH]c3c2)c1.Cl
[A] 61
